Recorded values, source ChEMBL document CHEMBL2069182.

# maps each entry to its pEC50
- TEST_SYSTEM: Probable G-protein coupled receptor 142 (Homo sapiens, UniProt Q7Z601)
- Sequence (Q7Z601 whole entry): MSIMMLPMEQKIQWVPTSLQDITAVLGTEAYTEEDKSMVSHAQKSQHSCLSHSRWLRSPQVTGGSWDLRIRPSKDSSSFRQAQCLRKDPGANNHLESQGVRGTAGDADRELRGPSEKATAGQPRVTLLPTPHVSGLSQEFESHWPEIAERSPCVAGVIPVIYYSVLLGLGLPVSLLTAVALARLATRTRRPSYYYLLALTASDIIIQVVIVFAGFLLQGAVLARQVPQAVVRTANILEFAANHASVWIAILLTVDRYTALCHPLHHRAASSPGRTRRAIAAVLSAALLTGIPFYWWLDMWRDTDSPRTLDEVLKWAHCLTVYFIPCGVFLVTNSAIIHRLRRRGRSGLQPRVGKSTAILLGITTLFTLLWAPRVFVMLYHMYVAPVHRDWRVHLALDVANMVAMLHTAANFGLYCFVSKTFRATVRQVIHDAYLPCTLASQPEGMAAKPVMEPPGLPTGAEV
- TEST_METHOD_NOTES: Agonist activity at human GPR142 expressed in HEK293 cells assessed as inositol phosphate accumulation using [3H]-inositol after 1 hr by scintillation counting
- Assay type: functional, cell-based
Answer as the number alone; pEC50 is minus log10 of concentration in mol/L.

Given the molecule N[C@@H](Cc1ccc(Cl)cc1)C(=O)Nc1cc(-c2ccncc2)c[nH]c1=O , write its reported pEC50. 5.42

For the molecule O=C(Nc1cc(-c2ccncc2)c[nH]c1=O)[C@H](Cc1ccccc1)NCc1cscn1 , report pEC50. 7.03

State, in one line, measured pEC50 of N[C@H](Cc1ccccc1)C(=O)Nc1cc(-c2ccncc2)c[nH]c1=O 4.89

Assign pEC50 to the following record: O=C(Nc1cc(-c2ccncc2)c[nH]c1=O)[C@H](Cc1ccccc1)NCCc1ccccc1 6.11

Determine its reported pEC50: O=C(Nc1cccc(-c2cc[nH]n2)c1)[C@H](Cc1ccccc1)NCc1cscn1 7.17

Input Cc1ccc(C[C@H](N)C(=O)Nc2cc(-c3ccncc3)c[nH]c2=O)cc1 , output reported pEC50. 5.18

---

- TEST_SYSTEM: UniProt:P10635
- Sequence (P10635 whole entry): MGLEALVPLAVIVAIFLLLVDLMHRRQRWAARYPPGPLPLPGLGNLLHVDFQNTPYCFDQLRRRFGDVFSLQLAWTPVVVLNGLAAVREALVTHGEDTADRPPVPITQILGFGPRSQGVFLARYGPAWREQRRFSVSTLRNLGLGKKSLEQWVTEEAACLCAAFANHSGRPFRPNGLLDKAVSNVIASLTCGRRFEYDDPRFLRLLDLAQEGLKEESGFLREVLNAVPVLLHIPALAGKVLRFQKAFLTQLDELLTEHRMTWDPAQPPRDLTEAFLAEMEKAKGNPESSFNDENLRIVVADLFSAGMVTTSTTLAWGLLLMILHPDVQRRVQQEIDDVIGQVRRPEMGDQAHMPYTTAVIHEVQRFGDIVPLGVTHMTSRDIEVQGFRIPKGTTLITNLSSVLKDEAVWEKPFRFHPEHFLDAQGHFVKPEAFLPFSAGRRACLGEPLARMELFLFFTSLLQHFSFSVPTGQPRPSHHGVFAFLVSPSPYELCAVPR
- TEST_METHOD_NOTES: Inhibition of CYP2D6 at 3 uM
- Type: ADME
PROPERTY_LABEL: inhibition at 3 µM (%)
Give the value, in units of %, as a plain number.

>>> observed_value("Cc1cc(-c2cccc(NC(=O)[C@H](Cc3ccccc3)NCc3cscn3)c2)ccn1")
74
>>> observed_value("O=C(Nc1cc(-c2ccn[nH]2)c[nH]c1=O)[C@H](Cc1ccccc1)NCc1cscn1")
29
>>> observed_value("Cn1cc(-c2cccc(NC(=O)[C@H](Cc3ccccc3)NCc3cscn3)c2)cn1")
42
>>> observed_value("Cn1cc(-c2c[nH]c(=O)c(NC(=O)[C@H](Cc3ccccc3)NCc3cscn3)c2)cn1")
21
>>> observed_value("O=C(Nc1cc(-c2ccncc2)c[nH]c1=O)[C@H](Cc1ccccc1)NCc1cscn1")
95
>>> observed_value("O=C(Nc1cccc(-c2cc[nH]n2)c1)[C@H](Cc1ccccc1)NCc1cscn1")
36
>>> observed_value("Cc1cc(-c2c[nH]c(=O)c(NC(=O)[C@H](Cc3ccccc3)NCc3cscn3)c2)ccn1")
20
>>> observed_value("Cn1ccc(-c2cccc(NC(=O)[C@H](Cc3ccccc3)NCc3cscn3)c2)n1")
12
>>> observed_value("O=C(Nc1cccc(-c2ccncc2)c1)[C@H](Cc1ccccc1)NCc1cscn1")
95
>>> observed_value("O=C(Nc1ccccc1)[C@H](Cc1ccccc1)NCc1cscn1")
36

Report inhibition at 3 µM, nothing else, for this molecule: O=C(Nc1cccc(-c2cn[nH]c2)c1)[C@H](Cc1ccccc1)NCc1cscn1 90

Quote inhibition at 3 µM reported for Nc1cc(-c2cccc(NC(=O)[C@H](Cc3ccccc3)NCc3cscn3)c2)ccn1 please. 42

Provide only the value of recorded inhibition at 3 µM for O=C(Nc1cccc(-c2ccccc2)c1)[C@H](Cc1ccccc1)NCc1cscn1 46

---

- TEST_SYSTEM: CYP3A4 (Homo sapiens, UniProt P08684)
- Sequence (P08684 whole entry): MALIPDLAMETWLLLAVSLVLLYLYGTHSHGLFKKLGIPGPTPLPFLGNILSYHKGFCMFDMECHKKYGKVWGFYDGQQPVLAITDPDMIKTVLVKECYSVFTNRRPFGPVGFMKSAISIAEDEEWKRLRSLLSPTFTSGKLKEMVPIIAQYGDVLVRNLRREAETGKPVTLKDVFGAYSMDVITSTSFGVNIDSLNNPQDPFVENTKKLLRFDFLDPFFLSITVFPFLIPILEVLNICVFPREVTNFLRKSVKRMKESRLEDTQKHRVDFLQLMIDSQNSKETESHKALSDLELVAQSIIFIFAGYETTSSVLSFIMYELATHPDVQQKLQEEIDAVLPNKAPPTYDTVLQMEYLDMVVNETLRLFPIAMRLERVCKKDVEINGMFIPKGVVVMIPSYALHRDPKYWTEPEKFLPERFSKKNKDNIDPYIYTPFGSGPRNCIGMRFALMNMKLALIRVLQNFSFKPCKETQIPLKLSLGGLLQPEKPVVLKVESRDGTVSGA
- TEST_METHOD_NOTES: Inhibition of CYP3A4 at 3 uM
- Type: ADME
The entries below are paired with their reported inhibition at 3 µM.
Field: numeric (%). Do not append units.

>>> observed_value("O=C(Nc1cc(-c2ccncc2)c[nH]c1=O)[C@H](Cc1ccccc1)NCc1cscn1")
97

Find the measured inhibition at 3 µM of O=C(Nc1cccc(-c2ccccc2)c1)[C@H](Cc1ccccc1)NCc1cscn1 and report it. 57

Provide only the value of recorded inhibition at 3 µM for Cc1cc(-c2cccc(NC(=O)[C@H](Cc3ccccc3)NCc3cscn3)c2)ccn1 63

---

- TEST_METHOD_NOTES: Mean residence time in rat at 0.5 mg/kg, iv
- Assay type: ADME, organism-based
- Parameters: dose 0.5 mg/kg, route intravenous
- RECORDED_CONDITIONS: in vivo
Recorded MRT, one value per entry.
The response must be a number in min with no trailing unit.

Complete the entry with MRT for Cc1cc(-c2c[nH]c(=O)c(NC(=O)[C@H](Cc3ccccc3)NCc3cscn3)c2)ccn1 18

Note MRT for the compound shown: O=C(O)c1cc(NC(=O)[C@H](Cc2ccccc2)NCc2cscn2)cc(-c2ccncc2)c1 12

---

- TEST_METHOD_NOTES: Half life in rat hepatocytes
- Type: ADME, cell-based, Liver, Hepatocyte
PROPERTY_LABEL: half-life (min)
Only the number, expressed in min, is required.

Specify reported half-life for the molecule shown: O=C(O)c1cc(NC(=O)[C@H](Cc2ccccc2)NCc2cscn2)cc(-c2ccncc2)c1 39

---

- TEST_SYSTEM: Probable G-protein coupled receptor 142 (Homo sapiens, UniProt Q7Z601)
- TEST_METHOD_NOTES: Agonist activity at human GPR142 expressed in HEK293 cells assessed as inositol phosphate accumulation using [3H]-inositol after 1 hr by scintillation counting
- Format: functional, cell-based
PROPERTY_LABEL: pEC50
Please treat pEC50 as minus the base-10 logarithm of the molar concentration.

Some solved cases for reference:
>>> observed_value("O=C(Nc1ccccc1)[C@H](Cc1ccccc1)NCc1cscn1")
5.48
>>> observed_value("Cn1ccc(-c2cccc(NC(=O)[C@H](Cc3ccccc3)NCc3cscn3)c2)n1")
5.72
>>> observed_value("Nc1cc(-c2cccc(NC(=O)[C@H](Cc3ccccc3)NCc3cscn3)c2)ccn1")
6.68
>>> observed_value("Cn1cc(-c2c[nH]c(=O)c(NC(=O)[C@H](Cc3ccccc3)NCc3cscn3)c2)cn1")
6.64

Turning now to a further molecule:
Write down the reported pEC50 (system: Probable G-protein coupled receptor 142 (Homo sapiens, UniProt Q7Z601)) of COc1ccc(-c2ccncc2)cc1NC(=O)[C@H](Cc1ccccc1)NCc1cscn1 7.05
